We begin with pKi values for Carbonic anhydrase 4 (Bos taurus), as collected from the published literature.
pKi is defined as minus the log10 of a concentration measured in mol/L.

Compound	pKi
CC(C)C(NS(=O)(=O)c1c(F)c(F)c(F)c(F)c1F)C(=O)NO (stereo unspecified)	7.89
C[C@H](CCC(=O)Nc1cccc(S(N)(=O)=O)c1)[C@H]1CC[C@H]2[C@@H]3[C@@H](O)C[C@@H]4C[C@H](O)CC[C@]4(C)[C@H]3CC[C@]12C	6.32
NS(=O)(=O)c1ccc(NNC(=O)CN(CCN(CC(=O)O)c2ccccc2O)c2ccccc2O)cc1	6.08

Query string: Identify the measured pKi of NS(=O)(=O)c1ccc(NNC(=O)CN(CCN(CC(=O)O)CC(=O)NNc2ccc(S(N)(=O)=O)cc2)CC(=O)O)cc1 for Carbonic anhydrase 4 (Bos taurus).
Result string: 6.29

Query string: Hello, I am looking for reported pKi with Carbonic anhydrase 4 (Bos taurus) for C[C@H](CCC(=O)Nc1ccccc1S(N)(=O)=O)[C@H]1CC[C@H]2[C@@H]3CC[C@@H]4C[C@H](O)CC[C@]4(C)[C@H]3CC[C@]12C . Could you help?
Result string: 6.12

Query string: For the record NS(=O)(=O)c1nc2ccc(NS(=O)(=O)C(F)(F)C(F)(F)C(F)(F)C(F)(F)F)cc2s1 , what value of pKi is listed for Carbonic anhydrase 4 (Bos taurus)?
Result string: 8.22

Query string: Missing value: pKi, Carbonic anhydrase 4 (Bos taurus), entry CC(C)c1cc(-c2ccccc2)cc(C(C)C)[n+]1CC(=O)Nc1ccc(S(=O)(=O)/N=c2/sc(S(N)(=O)=O)nn2C)cc1 . Fill in?
Result string: 8.00

Query string: Any idea what pKi came out for NCCC(=O)Nc1nnc(S(N)(=O)=O)s1 on Carbonic anhydrase 4 (Bos taurus)?
Result string: 6.90

Query string: Request: pKi, test system Carbonic anhydrase 4 (Bos taurus), entry NS(=O)(=O)c1cccc(NS(=O)(=O)c2ccc(NS(=O)(=O)c3c(F)c(F)c(F)c(F)c3F)cc2)c1
Result string: 7.80

Query string: Give the reported pKi for CC(C)c1cc(-c2ccccc2)cc(C(C)C)[n+]1CC(=O)NCCC(=O)Nc1nnc(S(N)(=O)=O)s1 (system: Carbonic anhydrase 4 (Bos taurus)).
Sequence (Q95323 whole entry): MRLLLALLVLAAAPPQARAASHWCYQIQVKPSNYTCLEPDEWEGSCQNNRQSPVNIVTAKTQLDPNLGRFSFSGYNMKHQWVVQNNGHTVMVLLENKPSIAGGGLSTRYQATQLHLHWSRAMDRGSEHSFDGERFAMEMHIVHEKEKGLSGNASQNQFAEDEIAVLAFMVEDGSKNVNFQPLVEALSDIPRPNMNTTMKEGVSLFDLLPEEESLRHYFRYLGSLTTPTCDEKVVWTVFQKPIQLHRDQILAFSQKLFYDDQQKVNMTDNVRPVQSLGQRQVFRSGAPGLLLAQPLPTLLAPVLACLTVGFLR
Result string: 7.80

Query string: Give pKi (Carbonic anhydrase 4 (Bos taurus)) of the following compound: NCCCC(=O)Oc1ccc2nc(S(N)(=O)=O)sc2c1
Result string: 7.92

Query string: Look up pKi with Carbonic anhydrase 4 (Bos taurus) for this compound: Nc1ccc(S(=O)(=O)NCCc2ccc(S(N)(=O)=O)cc2)cc1
Result string: 7.14

Query string: // fetch Carbonic anhydrase 4 (Bos taurus) pKi for CCCC(CCC)C(=O)Nc1ccc(S(N)(=O)=O)cc1Br
Result string: 7.31

Query string: Request body: readout pKi, system Carbonic anhydrase 4 (Bos taurus), query NS(=O)(=O)c1ccc(NS(=O)(=O)c2ccc(NS(=O)(=O)c3c(F)c(F)c(F)c(F)c3F)cc2)cc1 . Return the value.
Result string: 7.82

Query string: GET /values?readout=pKi&system=Carbonic anhydrase 4 (Bos taurus)&item= NS(=O)(=O)c1ccc(CCOC(=O)CN(CCN(CC(=O)O)c2ccccc2O)c2ccccc2O)cc1
Result string: 6.52

Query string: State its pKi on Carbonic anhydrase 4 (Bos taurus): NS(=O)(=O)c1ccc(NC(=O)CN(CCN(CCN(CC(=O)O)CC(=O)O)CC(=O)O)CC(=O)O)c(I)c1
Result string: 7.54

Query string: Please provide the recorded pKi for NS(=O)(=O)c1ccc(C[n+]2c(-c3ccccc3)cccc2-c2ccccc2)cc1 , tested on Carbonic anhydrase 4 (Bos taurus).
Result string: 5.71

Query string: Value wanted: pKi (Carbonic anhydrase 4 (Bos taurus)) of entry NS(=O)(=O)c1ccc(/N=C\c2ncc[nH]2)cc1
Result string: 6.89

Query string: Item: NS(=O)(=O)c1ccc(NC(=O)CNCCNCC(=O)O)c(Cl)c1 Test system: Carbonic anhydrase 4 (Bos taurus) Read-out: pKi Value: ?
Result string: 6.81

Query string: Report pKi for NS(=O)(=O)c1ccc(C(=O)c2cccc(C(=O)O)n2)c(F)c1 tested on Carbonic anhydrase 4 (Bos taurus).
Result string: 7.34

Query string: Notebook entry, Carbonic anhydrase 4 (Bos taurus) assay: pKi of NS(=O)(=O)c1ccc(NS(=O)(=O)c2c(F)c(F)c(F)c(F)c2F)c(F)c1 = ?
Result string: 6.85
